Assay: Dyeing of undamaged white goat tress with general composition, Examples 7-15
Details: 0.02 g dyestuff in 10 g general composition (Table 6), 20 mins at 50° C
Please provide measured Delta E for the entries that follow.
One number for each entry.

Batch lookup, Delta E per entry.
1. CC1=Nn2nc(C)nc2/C1=N\c1cc(Cl)c(O)c(Cl)c1
2. CSc1nnc2n1N=C(c1ccccc1)/C2=N/c1cc(Cl)c(O)c(Cl)c1
3. Cc1nc2n(n1)N=C(C(C)(C)C)/C2=N/c1cc(Cl)c(O)c(Cl)c1

Response line:
1: 81; 2: 59; 3: 75

----------
Assay: Dyeing of undamaged white goat tress with general composition, Examples 7-15
Conditions: 0.02 g dyestuff in 10 g general composition (Table 6), 20 mins at 50° C
Measured attribute: Colouring Result

> print(dat)
                                   molecule           value.measured
1  Cc1nc2n(n1)N=C(C(C)(C)C)/C2=N/c1cc(Cl)c(O)c(Cl)c1 [DS-4]  Bright, intense magenta
2  CSc1nnc2n1N=C(c1ccccc1)/C2=N/c1cc(Cl)c(O)c(Cl)c1 [DS-12]                   Violet
3  CC1=Nn2nc(C)nc2/C1=N\c1cc(Cl)c(O)c(Cl)c1 [DS-3]  Bright, intense magenta
4  CC(C)c1nc2n(n1)N=C(c1ccccc1Cl)/C2=N/c1cc(Cl)c(O)c(Cl)c1 [DS-15]                   Violet
5  CC(C)c1nc2n(n1)N=C(C(C)(C)C)/C2=N/c1cc(Cl)c(O)c(Cl)c1 [DS-7]                     Pink
6  CC(C)(C)C1=Nn2nc(-c3ccc(NS(C)(=O)=O)cc3)nc2/C1=N\c1cc(Cl)c(O)c(Cl)c1 [DS-16]              Bright pink

Prompt line: May I ask what Colouring Result has been recorded for Cc1nnc2n1N=C(C(C)(C)C)/C2=N/c1cc(Cl)c(O)c(Cl)c1 [DS-6] ?
Response line: Bright pink

----------
Assay: Measurement of pKa value by spectrophotometric titration
Assay type: physicochemical
Conditions: DMF/water (1/1) solution, 2×10^−5 mol/l, titrated from pH 2 with NaOH, visible ultra-violet absorption spectrum, read-out: pKa value determined
Measured attribute: pKa

Batch lookup, pKa per entry.
1. CC1=Nn2c(C)nnc2/C1=N\c1cc(Cl)c(O)c(Cl)c1
2. CC1=Nn2nc(C)nc2/C1=N\c1cc(Cl)c(O)c(Cl)c1
3. CC(C)c1nc2n(n1)N=C(C(C)(C)C)/C2=N/c1cc(Cl)c(O)c(Cl)c1
4. CC1=Nn2nc(C(C)CN)nc2/C1=N\c1cc(Cl)c(O)c(Cl)c1 (centres unmarked)
5. Cc1nc2n(n1)N=C(C(C)(C)C)/C2=N/c1cc(Cl)c(O)c(Cl)c1

Response line:
4.34
3.78
3.92
3.38
3.88

----------
Experiment: Dyeing of undamaged white goat tress with general composition, Examples 7-15
Conditions: 0.02 g dyestuff in 10 g general composition (Table 6), 20 mins at 50° C
Measured attribute: Delta E
Numbers only.

> print(dat)
                                smiles.data  measured.attribute  value.measured
1  CC(C)c1nc2n(n1)N=C(C(C)(C)C)/C2=N/c1cc(Cl)c(O)c(Cl)c1             Delta E              60

Batch lookup, Delta E per entry.
1. CC(C)(C)C1=Nn2nc(-c3ccc(NS(C)(=O)=O)cc3)nc2/C1=N\c1cc(Cl)c(O)c(Cl)c1
2. CC(C)c1nc2n(n1)N=C(c1ccccc1Cl)/C2=N/c1cc(Cl)c(O)c(Cl)c1
3. Cc1nnc2n1N=C(C(C)(C)C)/C2=N/c1cc(Cl)c(O)c(Cl)c1

Response line:
[52, 55, 55]
